The origin of these recorded values is the supplement of paper PMC10567573.

B1: PKD2L1 (parent)
chain: VFIFYYVVEEILELHIHRLRYLSS

# Variants of: B1
# PROTOCOL SUMMARY: protein stability index of a GFP-peptide fusion (GPS, HEK-293T) (PSI 1-6); higher = more stable;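 also: lentivirally expressed fusions sorted by FACS into six bins by GFP to DsRed ratio, PSI derived from sequencing read proportions per bin multiplied by bin number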
# APPLIED CONDITIONS: c terminus: a fixed tail appended
READOUT: protein stability index
API note: the answer field is a bare number with no unit suffix.

Given the variant VFIFYYVVEEILELHIHRLRYLIS [S23I] , what is its reported protein stability index? 4

Given the variant VFIFYYVVEEIFELHIHRLRYLSS [L12F] , what is its reported protein stability index? 3.21

Given the variant VFIFYYVVEEILRLHIHRLRYLSS [E13R] , what is its reported protein stability index? 3.68

Given the variant VFNFYYVVEEILELHIHRLRYLSS [I3N] , what is its reported protein stability index? 3.08

Given the variant VFIFYYVVEEICELHIHRLRYLSS [L12C] , what is its reported protein stability index? 2.92

Given the variant VFIFYYVVEEILELHIVRLRYLSS [H17V] , what is its reported protein stability index? 4.2

Given the variant VFIFYYVVEEILELHYHRLRYLSS [I16Y] , what is its reported protein stability index? 2.18

Given the variant VFIFYYVVEEILEEHIHRLRYLSS [L14E] , what is its reported protein stability index? 2.14

Given the variant VFIFYYVVNEILELHIHRLRYLSS [E9N] , what is its reported protein stability index? 2.21

Given the variant VFIFYYVVEEILELHCHRLRYLSS [I16C] , what is its reported protein stability index? 3.5

Given the variant VFIFYYVVEEIWELHIHRLRYLSS [L12W] , what is its reported protein stability index? 2.15

Given the variant VFIFYYVVEEILELWIHRLRYLSS [H15W] , what is its reported protein stability index? 2.13

Given the variant VFIFYYVVEEILELHIERLRYLSS [H17E] , what is its reported protein stability index? 1.77

Given the variant VFIFYYVVEEILELHRHRLRYLSS [I16R] , what is its reported protein stability index? 2.6

Given the variant VFIFYYVVEEILEMHIHRLRYLSS [L14M] , what is its reported protein stability index? 2.66

Given the variant VFIFYYVVEEILELHIHRLRYLSP [S24P] , what is its reported protein stability index? 2.94

Given the variant VFIFYYVVEEILELHIHKLRYLSS [R18K] , what is its reported protein stability index? 2.64

Given the variant VFIFYTVVEEILELHIHRLRYLSS [Y6T] , what is its reported protein stability index? 3.44

Given the variant VFIFYYVVDEILELHIHRLRYLSS [E9D] , what is its reported protein stability index? 3.91

Given the variant VFIFYYVVEEILELHIHRTRYLSS [L19T] , what is its reported protein stability index? 4.02

Given the variant WFIFYYVVEEILELHIHRLRYLSS [V1W] , what is its reported protein stability index? 2.35

Given the variant VFIFYYVVIEILELHIHRLRYLSS [E9I] , what is its reported protein stability index? 3.16
